targetOrTestSystem: TLK1 (human) (UniProt Q9UKI8)
Sequence (Q9UKI8 whole entry, looked up): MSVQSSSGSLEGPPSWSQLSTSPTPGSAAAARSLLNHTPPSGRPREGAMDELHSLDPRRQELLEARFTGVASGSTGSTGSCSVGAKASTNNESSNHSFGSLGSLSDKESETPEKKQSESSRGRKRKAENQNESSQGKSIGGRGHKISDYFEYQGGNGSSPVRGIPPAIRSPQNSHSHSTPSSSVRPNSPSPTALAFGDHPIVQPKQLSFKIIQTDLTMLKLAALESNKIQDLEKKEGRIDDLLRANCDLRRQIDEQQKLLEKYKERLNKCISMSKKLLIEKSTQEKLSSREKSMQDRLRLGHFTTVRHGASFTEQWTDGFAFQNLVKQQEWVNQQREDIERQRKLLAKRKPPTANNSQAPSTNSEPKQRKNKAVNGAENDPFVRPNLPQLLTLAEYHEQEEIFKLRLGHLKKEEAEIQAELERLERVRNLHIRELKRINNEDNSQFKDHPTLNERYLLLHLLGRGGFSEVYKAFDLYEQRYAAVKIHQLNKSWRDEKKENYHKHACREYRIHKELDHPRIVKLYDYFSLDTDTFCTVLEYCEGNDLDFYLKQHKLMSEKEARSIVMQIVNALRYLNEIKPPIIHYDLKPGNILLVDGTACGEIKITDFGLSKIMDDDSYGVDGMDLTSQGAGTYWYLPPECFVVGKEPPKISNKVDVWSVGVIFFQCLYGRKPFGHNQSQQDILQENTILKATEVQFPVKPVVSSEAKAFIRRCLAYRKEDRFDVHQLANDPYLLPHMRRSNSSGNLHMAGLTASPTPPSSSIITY
assayNotes: KINOMEscan competition binding
conditionDescription: compound 10.0 µM
measurementLabel: kinase still bound, per cent of control (%)
Write the answer as a number in %, unit excluded.

May I ask what kinase still bound, per cent of control has been recorded for `COC(=O)Nc1ccc(-c2nc(N3CCOCC3)c3cnn(C4CCN(C(=O)OC)CC4)c3n2)cc1` ? 91

Same again, this time with `CCC(=O)N1CCN(c2ccc(-n3c(=O)ccc4cnc5ccc(-c6cnc7ccccc7c6)cc5c43)cc2C(F)(F)F)CC1` 100

Continue with `CC(C)n1nc(-c2cc3cc(O)ccc3[nH]2)c2c(N)ncnc21` 75

And the next one, `COc1ccc(-c2ccc3c(N4CCOCC4)nc(N4C[C@@H](C)O[C@@H](C)C4)nc3n2)cc1CO` ? 94

====

What kinase still bound, per cent of control was measured for each of the following?
System: RET (human), P07949 [M918T]
Sequence (P07949 whole entry M918T, looked up): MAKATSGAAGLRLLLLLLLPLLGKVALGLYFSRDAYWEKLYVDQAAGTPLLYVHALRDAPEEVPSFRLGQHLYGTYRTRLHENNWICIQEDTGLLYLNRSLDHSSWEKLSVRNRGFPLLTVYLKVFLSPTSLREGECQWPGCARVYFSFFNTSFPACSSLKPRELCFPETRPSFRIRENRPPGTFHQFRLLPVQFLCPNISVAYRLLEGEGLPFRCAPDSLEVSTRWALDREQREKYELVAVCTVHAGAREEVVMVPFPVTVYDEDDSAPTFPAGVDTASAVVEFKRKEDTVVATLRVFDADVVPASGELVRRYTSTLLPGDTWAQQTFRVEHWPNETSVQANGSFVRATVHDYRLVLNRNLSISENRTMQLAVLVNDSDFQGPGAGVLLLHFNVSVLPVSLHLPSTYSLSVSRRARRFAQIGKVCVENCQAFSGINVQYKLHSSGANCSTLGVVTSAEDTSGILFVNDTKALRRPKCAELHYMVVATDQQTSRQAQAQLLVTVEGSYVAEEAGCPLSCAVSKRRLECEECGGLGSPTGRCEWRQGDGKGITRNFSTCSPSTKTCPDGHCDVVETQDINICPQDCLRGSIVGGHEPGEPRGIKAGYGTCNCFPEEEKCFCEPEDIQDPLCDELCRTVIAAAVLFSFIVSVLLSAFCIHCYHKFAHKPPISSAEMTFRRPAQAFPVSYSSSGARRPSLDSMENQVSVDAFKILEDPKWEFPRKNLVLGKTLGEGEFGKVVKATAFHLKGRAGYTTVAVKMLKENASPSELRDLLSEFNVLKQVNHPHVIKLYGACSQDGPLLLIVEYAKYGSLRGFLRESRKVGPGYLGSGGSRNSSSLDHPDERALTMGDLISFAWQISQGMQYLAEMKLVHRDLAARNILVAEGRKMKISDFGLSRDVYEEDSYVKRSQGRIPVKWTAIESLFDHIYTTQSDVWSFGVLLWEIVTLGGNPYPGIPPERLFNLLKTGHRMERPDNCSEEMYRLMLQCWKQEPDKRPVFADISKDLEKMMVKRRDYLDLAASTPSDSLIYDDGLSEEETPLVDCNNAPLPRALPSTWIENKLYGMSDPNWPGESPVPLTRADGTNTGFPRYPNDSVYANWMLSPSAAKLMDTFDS
assayNotes: KINOMEscan competition binding
conditionDescription: compound 10.0 µM
Entry rule: numbers only, all in %.

Fill in: kinase still bound, per cent of control of `CC(C)n1nc(-c2cc3cc(O)ccc3[nH]2)c2c(N)ncnc21` is ___ 0

Likewise for `COc1ccc(-c2ccc3c(N4CCOCC4)nc(N4C[C@@H](C)O[C@@H](C)C4)nc3n2)cc1CO` ? 100

Now consider `CCC(=O)N1CCN(c2ccc(-n3c(=O)ccc4cnc5ccc(-c6cnc7ccccc7c6)cc5c43)cc2C(F)(F)F)CC1` . 51

Another compound to look at: `COC(=O)Nc1ccc(-c2nc(N3CCOCC3)c3cnn(C4CCN(C(=O)OC)CC4)c3n2)cc1` 87

====

targetOrTestSystem: RPS6KA1 KD1 (human) (UniProt Q15418)
Sequence (Q15418 whole entry, looked up): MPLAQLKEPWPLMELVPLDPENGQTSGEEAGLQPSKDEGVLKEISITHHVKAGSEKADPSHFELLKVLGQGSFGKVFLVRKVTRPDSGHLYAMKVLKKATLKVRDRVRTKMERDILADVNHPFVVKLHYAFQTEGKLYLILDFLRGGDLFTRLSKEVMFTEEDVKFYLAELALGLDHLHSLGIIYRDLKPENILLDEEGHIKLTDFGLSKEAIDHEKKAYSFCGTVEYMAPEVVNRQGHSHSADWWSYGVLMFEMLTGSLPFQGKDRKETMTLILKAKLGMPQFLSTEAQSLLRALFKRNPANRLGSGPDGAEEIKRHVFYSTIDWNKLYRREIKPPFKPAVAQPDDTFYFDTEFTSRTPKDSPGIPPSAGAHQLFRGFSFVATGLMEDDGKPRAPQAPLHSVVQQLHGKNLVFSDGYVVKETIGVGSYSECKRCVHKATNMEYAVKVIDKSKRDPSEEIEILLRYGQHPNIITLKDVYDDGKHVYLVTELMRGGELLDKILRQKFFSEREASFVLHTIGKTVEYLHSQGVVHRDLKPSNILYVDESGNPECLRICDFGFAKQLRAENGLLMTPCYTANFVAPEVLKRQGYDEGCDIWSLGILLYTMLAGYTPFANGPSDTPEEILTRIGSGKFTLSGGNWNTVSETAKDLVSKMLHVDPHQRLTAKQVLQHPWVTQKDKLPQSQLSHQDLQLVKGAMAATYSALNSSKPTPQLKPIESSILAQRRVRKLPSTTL
assayNotes: KINOMEscan competition binding
conditionDescription: compound 10.0 µM
I'd be grateful if you could share measured kinase still bound, per cent of control for these entries.
All answers are understood in %, so give the number only.

// query kinase still bound, per cent of control value for entry `CC(C)n1nc(-c2cc3cc(O)ccc3[nH]2)c2c(N)ncnc21` 32

Then this molecule: `CCC(=O)N1CCN(c2ccc(-n3c(=O)ccc4cnc5ccc(-c6cnc7ccccc7c6)cc5c43)cc2C(F)(F)F)CC1` 68

Request: `COC(=O)Nc1ccc(-c2nc(N3CCOCC3)c3cnn(C4CCN(C(=O)OC)CC4)c3n2)cc1` 100

Again, but for `COc1ccc(-c2ccc3c(N4CCOCC4)nc(N4C[C@@H](C)O[C@@H](C)C4)nc3n2)cc1CO` 70

====

targetOrTestSystem: MAP2K3 (human)
assayNotes: KINOMEscan competition binding
conditionDescription: compound 10.0 µM
Please respond with reported kinase still bound, per cent of control for every item in the list.
Please state the figure in %; there is no need to write the unit.

Bench note: what kinase still bound, per cent of control did `COC(=O)Nc1ccc(-c2nc(N3CCOCC3)c3cnn(C4CCN(C(=O)OC)CC4)c3n2)cc1` show? 95

Entry to check: `COc1ccc(-c2ccc3c(N4CCOCC4)nc(N4C[C@@H](C)O[C@@H](C)C4)nc3n2)cc1CO` 94

Item: `CCC(=O)N1CCN(c2ccc(-n3c(=O)ccc4cnc5ccc(-c6cnc7ccccc7c6)cc5c43)cc2C(F)(F)F)CC1` 80

What would you report for `CC(C)n1nc(-c2cc3cc(O)ccc3[nH]2)c2c(N)ncnc21` ? 1.7

====

targetOrTestSystem: UniProt:P22694
assayNotes: KINOMEscan competition binding
conditionDescription: compound 10.0 µM
Record form. Attribute: per cent of control. Fill in for each entry.
Kindly answer with a numeric value in %, unit omitted.

Value lookup for per cent of control; key = `CCC(=O)N1CCN(c2ccc(-n3c(=O)ccc4cnc5ccc(-c6cnc7ccccc7c6)cc5c43)cc2C(F)(F)F)CC1` 100

Please do the same for `CC(C)n1nc(-c2cc3cc(O)ccc3[nH]2)c2c(N)ncnc21` as well. 65

Follow-up item: `COC(=O)Nc1ccc(-c2nc(N3CCOCC3)c3cnn(C4CCN(C(=O)OC)CC4)c3n2)cc1` 97

And what about the molecule `COc1ccc(-c2ccc3c(N4CCOCC4)nc(N4C[C@@H](C)O[C@@H](C)C4)nc3n2)cc1CO` ? 96

====

Tested on: RPS6KB1 (human), P23443 [T412E]
Sequence (P23443 whole entry T412E, looked up): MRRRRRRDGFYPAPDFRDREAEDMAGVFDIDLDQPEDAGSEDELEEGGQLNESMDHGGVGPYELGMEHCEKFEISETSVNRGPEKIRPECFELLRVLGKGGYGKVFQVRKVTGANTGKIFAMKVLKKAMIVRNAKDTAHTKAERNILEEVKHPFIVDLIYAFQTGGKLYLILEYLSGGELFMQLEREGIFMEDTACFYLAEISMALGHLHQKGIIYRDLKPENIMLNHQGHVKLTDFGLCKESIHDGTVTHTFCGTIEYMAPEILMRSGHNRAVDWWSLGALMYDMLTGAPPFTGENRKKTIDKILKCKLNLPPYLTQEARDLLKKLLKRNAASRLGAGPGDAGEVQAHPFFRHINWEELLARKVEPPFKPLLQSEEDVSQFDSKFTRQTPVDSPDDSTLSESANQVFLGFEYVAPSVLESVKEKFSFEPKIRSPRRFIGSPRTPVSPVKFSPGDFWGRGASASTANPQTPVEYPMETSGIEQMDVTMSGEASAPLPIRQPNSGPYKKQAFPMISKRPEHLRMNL
conditionDescription: compound 10.0 µM
measurementLabel: per cent of control
Lab note: write values as number then unit, every time.

Which measured per cent of control belongs to `COC(=O)Nc1ccc(-c2nc(N3CCOCC3)c3cnn(C4CCN(C(=O)OC)CC4)c3n2)cc1` , tested on RPS6KB1 (human), P23443 [T412E]? 93%

Try the compound `CCC(=O)N1CCN(c2ccc(-n3c(=O)ccc4cnc5ccc(-c6cnc7ccccc7c6)cc5c43)cc2C(F)(F)F)CC1` 81%

Record: `COc1ccc(-c2ccc3c(N4CCOCC4)nc(N4C[C@@H](C)O[C@@H](C)C4)nc3n2)cc1CO` 98%

Now consider `CC(C)n1nc(-c2cc3cc(O)ccc3[nH]2)c2c(N)ncnc21` . 50%

====

targetOrTestSystem: MKNK1 (human)
conditionDescription: compound 10.0 µM
Give measured per cent of control for each item. Keep answers brief.
API: value field is a number in %; no unit string.

Looking for the measured per cent of control of `COC(=O)Nc1ccc(-c2nc(N3CCOCC3)c3cnn(C4CCN(C(=O)OC)CC4)c3n2)cc1` , can you help? 92

Would you kindly repeat that for `CCC(=O)N1CCN(c2ccc(-n3c(=O)ccc4cnc5ccc(-c6cnc7ccccc7c6)cc5c43)cc2C(F)(F)F)CC1` ? 96

// next record `COc1ccc(-c2ccc3c(N4CCOCC4)nc(N4C[C@@H](C)O[C@@H](C)C4)nc3n2)cc1CO` 75

What do we get for `CC(C)n1nc(-c2cc3cc(O)ccc3[nH]2)c2c(N)ncnc21` ? 12

====

targetOrTestSystem: EPHB3 (human)
assayNotes: KINOMEscan competition binding
conditionDescription: compound 10.0 µM
measurementLabel: kinase still bound, per cent of control (%)
Kindly answer with a numeric value in %, unit omitted.

If you can, please state the reported kinase still bound, per cent of control value of `CCC(=O)N1CCN(c2ccc(-n3c(=O)ccc4cnc5ccc(-c6cnc7ccccc7c6)cc5c43)cc2C(F)(F)F)CC1` . 85

How about this compound: `COC(=O)Nc1ccc(-c2nc(N3CCOCC3)c3cnn(C4CCN(C(=O)OC)CC4)c3n2)cc1` 74

Next compound up: `CC(C)n1nc(-c2cc3cc(O)ccc3[nH]2)c2c(N)ncnc21` 81

Now the same for `COc1ccc(-c2ccc3c(N4CCOCC4)nc(N4C[C@@H](C)O[C@@H](C)C4)nc3n2)cc1CO` 98

====

What per cent of control was measured for each of the following?
targetOrTestSystem: PIM2 (human)
conditionDescription: compound 1.0 µM
Field format: number, assumed %, no unit text.

So what does the record say about per cent of control for `CC(C)n1nc(-c2cc3cc(O)ccc3[nH]2)c2c(N)ncnc21` ? 110

Same question, `CCC(=O)N1CCN(c2ccc(-n3c(=O)ccc4cnc5ccc(-c6cnc7ccccc7c6)cc5c43)cc2C(F)(F)F)CC1` this time 86

How about this compound: `COc1ccc(-c2ccc3c(N4CCOCC4)nc(N4C[C@@H](C)O[C@@H](C)C4)nc3n2)cc1CO` 86

Then this compound: `COC(=O)Nc1ccc(-c2nc(N3CCOCC3)c3cnn(C4CCN(C(=O)OC)CC4)c3n2)cc1` 81

====

targetOrTestSystem: MAPK10 (human) (UniProt P53779)
Sequence (P53779 whole entry, looked up): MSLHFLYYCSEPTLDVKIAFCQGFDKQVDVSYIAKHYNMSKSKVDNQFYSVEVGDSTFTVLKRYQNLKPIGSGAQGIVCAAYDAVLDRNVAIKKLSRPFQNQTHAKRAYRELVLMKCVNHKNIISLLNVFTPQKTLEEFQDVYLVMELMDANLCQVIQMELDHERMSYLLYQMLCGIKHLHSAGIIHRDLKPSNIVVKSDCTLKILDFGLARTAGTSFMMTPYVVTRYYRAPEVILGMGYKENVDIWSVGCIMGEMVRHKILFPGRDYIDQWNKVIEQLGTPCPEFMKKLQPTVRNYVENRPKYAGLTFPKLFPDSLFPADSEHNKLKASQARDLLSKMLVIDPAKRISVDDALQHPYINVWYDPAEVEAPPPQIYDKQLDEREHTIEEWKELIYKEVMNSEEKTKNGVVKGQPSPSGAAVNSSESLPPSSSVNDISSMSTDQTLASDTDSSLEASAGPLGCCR
assayNotes: KINOMEscan competition binding
conditionDescription: compound 10.0 µM
measurementLabel: kinase still bound, per cent of control

Recorded kinase still bound, per cent of control for `CC(C)n1nc(-c2cc3cc(O)ccc3[nH]2)c2c(N)ncnc21` , please? 72%

Entry `CCC(=O)N1CCN(c2ccc(-n3c(=O)ccc4cnc5ccc(-c6cnc7ccccc7c6)cc5c43)cc2C(F)(F)F)CC1` please 31%

`COC(=O)Nc1ccc(-c2nc(N3CCOCC3)c3cnn(C4CCN(C(=O)OC)CC4)c3n2)cc1` ? 100%

Lookup `COc1ccc(-c2ccc3c(N4CCOCC4)nc(N4C[C@@H](C)O[C@@H](C)C4)nc3n2)cc1CO` 81%

====

For each entry below, report its kinase still bound, per cent of control value.
targetOrTestSystem: UniProt:Q8TD08
Sequence (Q8TD08 whole entry, looked up): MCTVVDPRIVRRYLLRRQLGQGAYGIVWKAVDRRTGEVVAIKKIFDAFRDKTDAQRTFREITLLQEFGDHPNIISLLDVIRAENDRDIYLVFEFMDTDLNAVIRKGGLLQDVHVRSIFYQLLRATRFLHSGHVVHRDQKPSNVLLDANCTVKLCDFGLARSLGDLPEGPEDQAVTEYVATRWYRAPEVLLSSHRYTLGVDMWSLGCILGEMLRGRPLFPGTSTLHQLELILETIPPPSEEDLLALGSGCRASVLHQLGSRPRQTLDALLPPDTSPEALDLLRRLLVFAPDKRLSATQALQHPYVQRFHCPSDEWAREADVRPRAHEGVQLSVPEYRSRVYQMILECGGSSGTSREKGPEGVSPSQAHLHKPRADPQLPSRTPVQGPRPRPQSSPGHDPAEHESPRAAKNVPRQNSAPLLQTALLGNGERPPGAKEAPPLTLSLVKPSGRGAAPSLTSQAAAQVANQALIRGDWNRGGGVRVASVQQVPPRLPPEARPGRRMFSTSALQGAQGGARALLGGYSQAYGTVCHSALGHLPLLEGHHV
assayNotes: KINOMEscan competition binding
conditionDescription: compound 10.0 µM
Number only, in %; omit the unit.

I would be grateful if you could share the reported kinase still bound, per cent of control for `CC(C)n1nc(-c2cc3cc(O)ccc3[nH]2)c2c(N)ncnc21` . 54

Same again, this time with `CCC(=O)N1CCN(c2ccc(-n3c(=O)ccc4cnc5ccc(-c6cnc7ccccc7c6)cc5c43)cc2C(F)(F)F)CC1` 79

Then this molecule: `COC(=O)Nc1ccc(-c2nc(N3CCOCC3)c3cnn(C4CCN(C(=O)OC)CC4)c3n2)cc1` 100

What do we get for `COc1ccc(-c2ccc3c(N4CCOCC4)nc(N4C[C@@H](C)O[C@@H](C)C4)nc3n2)cc1CO` ? 96
